Target: L. longbeachae LUSH SH2 domain (Legionella longbeachae, UniProt D3HPG5)
Sequence (D3HPG5 3-171 limits assumed): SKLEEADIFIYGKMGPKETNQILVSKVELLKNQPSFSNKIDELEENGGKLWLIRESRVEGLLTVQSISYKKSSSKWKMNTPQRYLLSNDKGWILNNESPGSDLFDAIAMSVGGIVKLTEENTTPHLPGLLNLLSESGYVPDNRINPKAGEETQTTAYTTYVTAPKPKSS
outcome.measure: pKd
Convention used: pKd is expressed as -log10 of the molar concentration.

query: Output reported pKd of the compound N[C@@H](Cc1ccc(OP(=O)(O)O)cc1)C(=O)NCC(=O)O [pY-G dipeptide] on L. longbeachae LUSH SH2 domain (Legionella longbeachae, UniProt D3HPG5).
result: 6.09
